- assay-target: human SGLT1 (Homo sapiens (Human))
- Sequence (P13866 whole entry): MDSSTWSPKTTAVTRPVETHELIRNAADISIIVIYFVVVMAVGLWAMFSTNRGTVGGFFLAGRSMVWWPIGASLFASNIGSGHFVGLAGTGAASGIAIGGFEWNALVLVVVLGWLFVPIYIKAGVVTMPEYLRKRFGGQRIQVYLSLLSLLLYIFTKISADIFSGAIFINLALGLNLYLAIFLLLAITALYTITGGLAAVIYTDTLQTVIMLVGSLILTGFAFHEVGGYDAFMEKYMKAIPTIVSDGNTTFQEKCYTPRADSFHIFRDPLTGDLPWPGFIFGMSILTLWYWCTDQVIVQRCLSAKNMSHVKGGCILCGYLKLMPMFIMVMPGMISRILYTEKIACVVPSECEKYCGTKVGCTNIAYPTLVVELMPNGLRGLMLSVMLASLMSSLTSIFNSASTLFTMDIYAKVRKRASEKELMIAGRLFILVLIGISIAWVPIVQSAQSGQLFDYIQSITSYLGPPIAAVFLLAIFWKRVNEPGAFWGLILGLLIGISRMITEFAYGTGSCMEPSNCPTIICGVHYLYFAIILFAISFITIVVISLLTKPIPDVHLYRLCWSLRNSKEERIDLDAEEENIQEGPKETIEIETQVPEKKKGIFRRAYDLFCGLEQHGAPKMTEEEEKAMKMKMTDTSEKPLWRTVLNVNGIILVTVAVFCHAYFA
- method-notes: SGLT1 assay: analogous test with hSGLT1 cDNA expressed in CHO-K1 or HEK293 cells
- Type: cell-based
- experimental-parameters: n = 1-4; 14C-AMG uptake, cells expressing hSGLT1
Sorting guide: entries reporting IC50 beneath 800 nM go in the true pile, the rest go in the false pile.

Look over these answered cases.
structure-notation	class-name
OC[C@H]1O[C@@H](c2ccc(Cl)c(Cc3ccc4c(c3)OCCN4)c2)[C@H](O)[C@@H](O)[C@@H]1O	false
OC[C@H]1O[C@@H](c2ccc(Cl)c(Cc3ccc4c(c3)NCCC4)c2)[C@H](O)[C@@H](O)[C@@H]1O	true
CC1(C)Oc2ccc(Cc3cc([C@@H]4O[C@H](CO)[C@@H](O)[C@H](O)[C@H]4O)ccc3Cl)cc2NC1=O	false
OC[C@H]1O[C@@H](c2ccc(OC(F)(F)F)c(Cc3ccc4c(c3)CCCO4)c2)[C@H](O)[C@@H](O)[C@@H]1O	true

Now for another entry.
## Task Does the reported IC50 of the following molecule sit strictly below 800 nM? `O=C1CCOc2ccc(Cc3cc([C@@H]4O[C@H](CO)[C@@H](O)[C@H](O)[C@H]4O)ccc3Cl)cc21`
## Result false

Source of measurements: patent USRE49080E1
